TARGET_UNDER_TEST: integrin linked kinase (Homo sapiens, UniProt Q13418)
Construct: The target integrin linked kinase is a full-length recombinant protein expressed in sF9 insect cells by baculovirus infection; GST (N); virus made in Sf9 cells, litre-scale expression in Hi5 insect cells
Sequence (Q13418 1-452): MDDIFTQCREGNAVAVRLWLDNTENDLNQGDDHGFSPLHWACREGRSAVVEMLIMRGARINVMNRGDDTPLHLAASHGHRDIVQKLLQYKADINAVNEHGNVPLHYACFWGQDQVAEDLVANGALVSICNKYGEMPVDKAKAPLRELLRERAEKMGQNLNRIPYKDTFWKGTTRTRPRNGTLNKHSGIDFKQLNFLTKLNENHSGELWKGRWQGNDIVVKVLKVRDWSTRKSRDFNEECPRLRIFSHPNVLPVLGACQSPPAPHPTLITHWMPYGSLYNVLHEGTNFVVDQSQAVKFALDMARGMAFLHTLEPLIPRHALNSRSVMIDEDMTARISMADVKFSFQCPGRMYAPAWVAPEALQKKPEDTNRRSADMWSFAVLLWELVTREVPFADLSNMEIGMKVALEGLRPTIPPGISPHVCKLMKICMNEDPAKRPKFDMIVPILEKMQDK
ASSAY_COMMENT: In vitro kinase inhibition assay, integrin linked kinase (radioactive phosphate incorporation, scintillation counting)
COND: full-length recombinant ILK expressed in insect cells; substrate CKRRRLASLR-amide; 15 min at room temperature
METRIC: pIC50
FYI, pIC50 means -log10 of a concentration in mol per litre.

Consider the reported pIC50 for these compounds:
Cc1ccc(NN=C2C(N)=NN=C2N)cc1 [KP-23195]; 5.28
NC1=NN=C(N)C1=NNCCN1CCOCC1 [KP-27290]; 5.09
NC1=NNC(=O)C1/N=N/c1ccccc1 (centres unmarked) [KP-23198, 3-amino-4-phenylazo-2-pyrazolin-5-one]; 4.77

Case COc1ccc(NN=C2C(N)=NN=C2N)cc1O [KP-23197] , integrin linked kinase (Homo sapiens, UniProt Q13418), pIC50 recorded as 5.40

---

Here the recorded pIC50 is given for each entry.
TARGET_UNDER_TEST: integrin linked kinase (Homo sapiens, UniProt Q13418)
Construct: The target integrin linked kinase is a full-length recombinant protein expressed in sF9 insect cells by baculovirus infection; GST (N); virus made in Sf9 cells, litre-scale expression in Hi5 insect cells
Sequence (Q13418 1-452): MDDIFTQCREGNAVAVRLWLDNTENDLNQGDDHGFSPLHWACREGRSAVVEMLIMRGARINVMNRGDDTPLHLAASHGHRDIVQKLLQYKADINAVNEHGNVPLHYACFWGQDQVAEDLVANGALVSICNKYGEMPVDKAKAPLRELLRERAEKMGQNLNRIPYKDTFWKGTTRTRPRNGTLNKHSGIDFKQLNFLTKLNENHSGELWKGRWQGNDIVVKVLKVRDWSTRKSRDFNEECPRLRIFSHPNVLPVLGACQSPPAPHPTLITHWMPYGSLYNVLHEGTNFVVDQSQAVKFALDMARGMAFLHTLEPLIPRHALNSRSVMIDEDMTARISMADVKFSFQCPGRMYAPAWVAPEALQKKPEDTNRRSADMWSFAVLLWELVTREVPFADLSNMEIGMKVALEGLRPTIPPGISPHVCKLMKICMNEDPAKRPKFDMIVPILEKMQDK
ASSAY_COMMENT: In vitro kinase inhibition assay, integrin linked kinase (radioactive phosphate incorporation, scintillation counting)
COND: full-length recombinant ILK expressed in insect cells; substrate CKRRRLASLR-amide; 15 min at room temperature
FYI, pIC50 means -log10 of a concentration in mol per litre.

NC1=NN=C(N)C1=NNc1cc[nH]n1; 5.10

Turning now to a further record.
Entry under test: NC1=NN=C(N)C1=NNc1ccc(S(=O)(=O)O)c2ccccc12 . Its pIC50 was 4.71
